Attribute: geometric mean
target: T1, MUC1 on HCT116/MUC1 cells (UniProt P15941 24-1255, limits assumed); assay: FACS titration, HCT116/MUC1 cells, antibody at 250 nM
T1 construct: whole, on cells; also called MUC1 overexpressed cell line
T1 sequence (P15941 24-1255 limits assumed): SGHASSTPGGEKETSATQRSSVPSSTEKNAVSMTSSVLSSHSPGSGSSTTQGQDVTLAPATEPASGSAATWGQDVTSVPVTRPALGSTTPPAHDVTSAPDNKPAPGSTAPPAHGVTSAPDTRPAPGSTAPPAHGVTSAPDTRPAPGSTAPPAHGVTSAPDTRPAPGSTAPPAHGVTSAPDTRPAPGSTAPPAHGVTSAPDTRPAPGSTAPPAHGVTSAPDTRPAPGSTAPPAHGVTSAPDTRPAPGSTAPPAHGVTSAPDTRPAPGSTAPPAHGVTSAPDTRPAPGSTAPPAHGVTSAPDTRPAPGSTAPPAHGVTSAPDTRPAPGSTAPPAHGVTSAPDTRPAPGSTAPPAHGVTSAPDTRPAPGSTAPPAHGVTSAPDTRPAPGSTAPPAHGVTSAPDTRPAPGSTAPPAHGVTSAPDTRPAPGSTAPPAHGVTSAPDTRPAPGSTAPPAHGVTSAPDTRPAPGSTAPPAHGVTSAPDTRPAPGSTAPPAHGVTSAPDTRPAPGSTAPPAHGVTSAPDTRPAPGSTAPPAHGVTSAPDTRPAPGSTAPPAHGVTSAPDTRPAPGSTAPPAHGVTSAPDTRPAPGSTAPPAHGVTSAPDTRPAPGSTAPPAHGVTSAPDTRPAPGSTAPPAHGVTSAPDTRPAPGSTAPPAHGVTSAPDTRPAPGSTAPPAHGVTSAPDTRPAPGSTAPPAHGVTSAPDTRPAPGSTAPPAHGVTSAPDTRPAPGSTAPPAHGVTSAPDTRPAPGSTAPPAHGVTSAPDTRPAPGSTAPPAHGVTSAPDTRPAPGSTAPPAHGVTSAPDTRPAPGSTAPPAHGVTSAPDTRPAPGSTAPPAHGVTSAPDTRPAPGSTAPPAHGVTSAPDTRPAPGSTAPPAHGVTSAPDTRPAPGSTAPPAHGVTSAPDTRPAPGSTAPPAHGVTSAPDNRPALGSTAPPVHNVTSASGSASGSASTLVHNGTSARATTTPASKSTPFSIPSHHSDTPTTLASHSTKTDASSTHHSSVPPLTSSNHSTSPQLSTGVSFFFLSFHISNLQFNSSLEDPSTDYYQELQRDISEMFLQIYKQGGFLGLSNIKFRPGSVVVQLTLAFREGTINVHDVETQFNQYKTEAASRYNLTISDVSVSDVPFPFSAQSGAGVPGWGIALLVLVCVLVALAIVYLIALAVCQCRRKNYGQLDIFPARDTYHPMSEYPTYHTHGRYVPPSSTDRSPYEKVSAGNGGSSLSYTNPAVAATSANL
Enter the number alone.

Sample answers from the record:
BINDER	RESULT
VH5 + VL3 (antibody, V domains shown, Humanized IgG expressed in HEK293; also called humanized antibody VH5+VL3) VH: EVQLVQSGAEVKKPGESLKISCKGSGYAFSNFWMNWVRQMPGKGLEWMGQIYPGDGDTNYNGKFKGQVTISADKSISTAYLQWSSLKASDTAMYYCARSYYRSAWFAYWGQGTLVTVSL VL: EIVLTQSPATLSLSPGERATLSCRASQSIGTSIHWYQQKPGQAPRLLIYYASESISGIPARFSGSGSGTDFTLTISSLEPEDFAVYYCQQSNNWPLTFGGGTKVEIK	167
VH1 + VL4 (antibody, V domains shown, Humanized IgG expressed in HEK293; also called humanized antibody VH1+VL4) VH: QVQLVQSGAEVKKPGSSVKVSCKASGYAFSNFWMNWVRQAPGQGLEWMGQIYPGDGDTNYNGKFKGRVTITADKSTSTAYMELSSLRSEDTAVYYCARSYYRSAWFAYWGQGTLVTVSS VL: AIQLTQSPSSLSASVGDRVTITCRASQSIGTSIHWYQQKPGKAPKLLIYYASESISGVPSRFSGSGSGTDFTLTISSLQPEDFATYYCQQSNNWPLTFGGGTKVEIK	142
VH1 + VL1 (antibody, V domains shown, Humanized IgG expressed in HEK293; also called humanized antibody VH1+VL1) VH: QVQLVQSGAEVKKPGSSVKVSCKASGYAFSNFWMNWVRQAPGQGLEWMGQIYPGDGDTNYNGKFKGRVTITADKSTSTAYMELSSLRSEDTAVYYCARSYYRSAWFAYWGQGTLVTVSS VL: EIVLTQSPDFQSVTPKEKVTITCRASQSIGTSIHWYQQKPDQSPKLLIKYASESISGVPSRFSGSGSGTDFTLTINSLEAEDAATYYCQQSNNWPLTFGQGTKVEIK	363
VH2 + VL1 (antibody, V domains shown, Humanized IgG expressed in HEK293; also called humanized antibody VH2+VL1) VH: QVQLVQSGAEVKKPGASVKVSCKASGYAFSNFWMNWVRQAPGQGLEWMGQIYPGDGDTNYNGKFKGRVTMTRDTSTSTVYMELSSLRSEDTAVYYCARSYYRSAWFAYWGQGTLVTVSS VL: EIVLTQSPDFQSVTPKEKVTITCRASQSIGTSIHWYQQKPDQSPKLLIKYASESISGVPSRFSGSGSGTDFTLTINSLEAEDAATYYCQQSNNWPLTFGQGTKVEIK	337

Now, please, on to the next binder.
QUERY: Indicate its recorded geometric mean; the binder in question is VH2 + VL4 (antibody, V domains shown, Humanized IgG expressed in HEK293; also called humanized antibody VH2+VL4) VH: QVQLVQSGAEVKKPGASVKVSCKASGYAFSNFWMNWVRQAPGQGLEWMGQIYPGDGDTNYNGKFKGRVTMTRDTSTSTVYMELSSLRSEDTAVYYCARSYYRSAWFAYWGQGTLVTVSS VL: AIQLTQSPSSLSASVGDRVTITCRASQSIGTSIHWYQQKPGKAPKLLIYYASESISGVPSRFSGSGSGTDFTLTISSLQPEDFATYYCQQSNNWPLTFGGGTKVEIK
RESULT: 216
